// apparent KD of MS2 coat protein lookup, one value per entry
System: MS2 coat protein
Assay: apparent KD of MS2 coat protein; designed switch direction (-1 OFF switch, 1 ON switch): -1; higher = weaker reporter binding
Conditions: input ligand: none
measured-quantity: apparent KD of MS2 coat protein (µM)

residues="CACGAAUUGUGAGGAUAUGUGCGACAAAGUUGCACAGAAGGCACAUGAGGAUCACCCAUGUAAGCUAGGUCGAAAGACCUAGCG [Omei Exc(NG)1 Av1] (Eterna round: R96, puzzle: Exclusion NG 1)" uom=µM observed_result=0.0564
residues="AAAUUAACUUAGGAUAUCGGCUGAAACAGCGUACGAGAAGGAAGUACAUGAGGAUCACCCAUGUGUCCCGUGCU [Teentibi] (Eterna round: R97, puzzle: Exclusion 6)" uom=µM observed_result=0.0381
residues="GCUUGUGGGCAAGGAUAUCCUACGCUGUUCUGGUUCGUGUCUGUCACAUGAGGAUCACCCAUGUGGGAGAAGGUGCAUUUGGGU [Design 58] (Eterna round: R96, puzzle: Exclusion NG 2)" uom=µM observed_result=0.0209
residues="UCUAGGAGAGGAUAUACAUGAGGAUCACCCAUGUGCAUGAUCAGGCGUCAGUCGCACCGUAGAAGGUUCCAGAA [Eternabot (L2) Solution 40] (Eterna round: R97, puzzle: Exclusion 3)" uom=µM observed_result=0.047
residues="CUGAACCCGGUAGGAUAUAUUGUGGGCGGGCGUGGAACGACAUGAGGAUCACCCAUGUGAUUGAGGUAGAAGGGCCGAGAGGUU [Excl-NG2-LRO17] (Eterna round: R96, puzzle: Exclusion NG 2)" uom=µM observed_result=0.0428

---

System: MS2 coat protein
Assay: apparent KD of MS2 coat protein, switch OFF state (with FMN for OFF switches, without FMN for ON switches); designed switch direction (-1 OFF switch, 1 ON switch): 1; higher = weaker reporter binding
Details: FMN input: 0 or 200 uM; Eterna round: R93 (includes R88 designs)
Assign criterion met whenever apparent KD of MS2 coat protein does not fall below 40 nM; assign criterion not met whenever it does.

residues="UUACAGCACAGGUAGGAUAUGUAGGGUGGUACAUGAGGAUCACCCAUGUAUCCACCCUUCGAAAGGCAGAAGGGCCUGUCGCCGC [Leanisqube]" qualitative_label="criterion not met"
residues="GAGAUACAUGAGGAUCACCCAUGUUGAUACAUGGGAGGAUAUACAAGGUCGAAAGAUAAGGUAGAAGGCCUAAAAG [LROPPY Same State 1 - v04_deltaG=3.5]" qualitative_label="criterion not met"
residues="AAAAAAAAAACGCAGGAUAUCCAAAAAAAAACAUGAGGAUCACCCAUGUAAAAAAAAAAAAAAUGGGAGAAGGGUGAAAAAAAAAA [Louisiana 6 - Jieux - Same State 2]" qualitative_label="criterion met"
residues="GAAAAACAUGAGGAUCACCCAUGUAGAAAUAUGGGAGGAUAUACAAAGACGAAAGUCAAAGUAGAAGGCCUAAAGA [Mat - Same State 1 - Eli mod - 34]" qualitative_label="criterion met"
residues="AUAAAACAUGAGGAUCACCCAUGUCAAGGCUAUCAAGGAUAUAGGAAGCGUAGCGGUUGACUAGAAGGUGAGAAAU [Ragexequ]" qualitative_label="criterion met"
residues="AAAAGACAUGAGGAUCACCCAUGUGAAAACGUAGGAGGAUAUGUCUGGAAACCAGACUGGACAGAAGGCCUGUGUC [SS1 - 32]" qualitative_label="criterion not met"
residues="AGACAUAAAAGAGAGGAUAUCCAAAAGAAAACAUGAGGAUCACCCAUGUGAAAGAAAAUAAAAUGGGAGAAGGCUCACAUACAGA [Topaz 36]" qualitative_label="criterion not met"
residues="AAAGAAAAACUAGAGGAUAUCCGAAUGGUAACAUGAGGAUCACCCAUGUGAAGAAAGGAACAUGAGGAGAAGGCUAGAAGAAAAA [JL Nando mod 10]" qualitative_label="criterion not met"
residues="AAAAUACAUGAGGAUCACCCAUGUGAAAAUAUGGGAGGAUAUACCGAAAAAAAAAAAAAGGUAGAAGGCCCAAAAA [SS! 1 MT 5]" qualitative_label="criterion met"
residues="AAAAAACAUGAGGAUCACCCAUGUAAUACAACAUCAGGAUAUUGAUUUUACUAUGUAUUGCAAGAAGGGAUGAAAA [Same State 1.3a (Same State 1 - Omei 2 )]" qualitative_label="criterion met"
residues="AAAUAAAUGACUCAGGAUAUAUCAGAGAAAACAUGAGGAUCACCCAUGUAAUAAUAACAUGUGUGGUAGAAGGGAGUCAAUAAAU [LROPPY Same State 2 - v03_deltaG=2.1]" qualitative_label="criterion met"
residues="AAGUCACAUGAGGAUCACCCAUGUCGUAAACGAUGAGGAUAUAGGAAAAAAAAAAAAAAACUAGAAGGUAUAACAA [SameState1-01]" qualitative_label="criterion not met"
